# tgt: human KEAP1 (N-term, residues 321-609) (Homo sapiens, UniProt Q14145)
# Construct: human KEAP1 (N-term, residues 321-609)
# Sequence (Q14145 321-609): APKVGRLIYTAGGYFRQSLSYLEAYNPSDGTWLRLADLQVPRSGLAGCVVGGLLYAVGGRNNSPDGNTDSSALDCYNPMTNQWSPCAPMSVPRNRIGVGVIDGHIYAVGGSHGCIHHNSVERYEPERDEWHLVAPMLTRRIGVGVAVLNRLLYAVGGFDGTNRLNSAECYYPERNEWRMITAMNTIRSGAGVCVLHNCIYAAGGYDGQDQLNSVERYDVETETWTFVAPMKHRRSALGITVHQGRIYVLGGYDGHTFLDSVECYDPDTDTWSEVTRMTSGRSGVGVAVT
# methodSummary: KEAP1 Kelch Fluorescence Polarization (FP) Assay
# testConditions: inhibition of Kelch domain-NRF2 interaction; 2 nM FITC-labelled NRF2 peptide, 25 nM KEAP1, 1 h room temperature; compounds below 10 nM cannot be differentiated
pIC50: −log10 of the molar value.
measuredEndpoint: pIC50

1. Cc1cc(C(=O)NCCOc2cccc3c2[C@@H](CN2C(=O)c4ccccc4C2=O)N(C(=O)[C@@H]2CCCC[C@@H]2C(=O)NC2CC2)CC3)no1 [Example 7] : 6.71
2. CNC(=O)[C@H]1CCCC[C@H]1C(=O)N1CCc2c(Br)ccc(OCc3noc(C(C)C)n3)c2[C@H]1CN1CCCC1=O [Example 55] : 7.27
3. CNC(=O)[C@H]1CCCC[C@H]1C(=O)N1CCc2cccc(OCCNC(=O)c3nc4ccccc4o3)c2[C@H]1CN1C(=O)c2ccccc2C1=O [Example 11] : 7.43
4. CCNC(=O)[C@H]1CCCC[C@H]1C(=O)N1CCc2c(Cl)ccc(OCc3noc4ccccc34)c2[C@H]1CN1CCCC1=O [Example 53] : 7.33
5. O=C(NCCO)[C@H]1CCCC[C@H]1C(=O)N1CCc2cccc(O[C@H]3CCN(C(=O)c4cncs4)C3)c2[C@H]1CN1C(=O)c2ccccc2C1=O [Example 35] : 6.73

[I] CNC(=O)N1CCCC[C@H]1C(=O)N1CCc2c(Cl)ccc(OCc3nnn(C)c3C(F)F)c2[C@H]1CN1CCCC1=O [Example 79]
[II] CNC(=O)[C@H]1CCCC[C@H]1C(=O)N1CCc2cccc(OCc3cnccn3)c2[C@H]1CN1C(=O)c2ccccc2C1=O [Example 27]
Q. # return whichever of I and II has the smaller pIC50 Answer = label.
A. II

----------
# Test system: NRF2 mediated gene NAD(P)H:quinone acceptor oxidoreductase 1 (NQO1) in BEAS-2B cells
# methodSummary: Beas2B NQO1 mRNA Cell Based Assay
# Set-up: species or system human
# testConditions: Homo sapiens; BEAS-2B cells, compound for 24 h; increase in NQO1 mRNA compared to vehicle (0.1% DMSO) control; read-out: EC50
Examples of molecules with documented EC50 follow.
Value expressed in nM; do not type the unit.

1) CNC(=O)[C@@]1(C)CCCC[C@H]1C(=O)N1CCc2c(Cl)ccc(OCc3nnn(C)c3COC)c2[C@H]1CN1C[C@H](C)CC1=O : 790
2) CNC(=O)[C@H]1CCCC[C@H]1C(=O)N1CCc2c(Cl)ccc(OCc3cnc4c(c3)ncn4C)c2[C@H]1CN1CCCC1=O : 145
3) CNC(=O)[C@@]1(C)CCCC[C@H]1C(=O)N1CCc2c(Cl)cc(F)c(OCc3cn(C)nn3)c2[C@H]1CN1CC2(CC2)CC1=O : 66
4) NC(=O)[C@H]1CCCC[C@H]1C(=O)N1CCc2cccc(OCCCC(=O)N3CCCC3)c2[C@H]1CN1C(=O)c2ccccc2C1=O : 2030
5) CNC(=O)[C@H]1CCCC[C@H]1C(=O)N1CCc2c(Cl)ccc(OCc3nnn(C)c3C(F)F)c2[C@H]1CN1Cc2ccccc2C1=O : 166

Q. Would you mind telling me what EC50 value was observed for CNC(=O)[C@@]1(C)CCCC[C@H]1C(=O)N1CCc2c(Cl)ccc(OCc3nnn(C)c3C(F)(F)F)c2[C@H]1CN1CC2(CC2)CC1=O ?
A. 114

Q. // repeat for CNC(=O)[C@H]1CCCC[C@H]1C(=O)N1CCc2c(Cl)ccc(OCc3cccnc3)c2[C@H]1CN1CCCC1=O and report
A. 650

Q. // repeat for CNC(=O)[C@H]1CCCC[C@H]1C(=O)N1CCc2c(Cl)ccc(OCc3nnn(C)c3C(F)F)c2[C@H]1CN1CC2(CC2)CC1=O and report
A. 230

Q. // repeat for CNC(=O)[C@H]1CCCC[C@H]1C(=O)N1CCc2c(Cl)ccc(OCc3nnn(C)c3C(F)F)c2[C@H]1CN1CCCC1=O and report
A. 206

Q. // repeat for Cn1nnc(COc2ccc(Cl)c3c2[C@@H](CN2CC4(CC4)CC2=O)N(C(=O)[C@@H]2CCCC[C@]2(C)C(N)=O)CC3)c1C(F)F and report
A. 26

Q. // repeat for CNC(=O)[C@@]1(C)CCCC[C@H]1C(=O)N1CCc2c(Cl)ccc(OCc3nnn(C)c3C)c2[C@H]1CN1CCCC1=O and report
A. 94

Q. // repeat for CNC(=O)[C@H]1CCCC[C@H]1C(=O)N1CCc2c(Cl)ccc(OCc3cnccn3)c2[C@H]1CN1CCCC1=O and report
A. 1460
